molecular target: HIV-1 capsid protein N-terminal domain (Human immunodeficiency virus type 1 group M subtype B, UniProt P12493); construct: DNA encoding the CA N-terminal domain (residues 1-151); made in house; assay: 1H-15N HSQC NMR titration, binding to the apical cleft; conditions: 1H-15N HSQC, FIGS. 13-14
property-label: binding to the capsid NTD, from chemical shift changes (in words)

Q: Given the molecule Cc1ccc(NC(=O)Nc2ccc(C(Cl)(Cl)Cl)cc2)cc1Cl , write its reported binding to the capsid NTD, from chemical shift changes (in words).
Result: capsid binding

Q: Given the molecule Cc1ccc(NC(=O)NC(C)C)cc1[N+](=O)[O-] , write its reported binding to the capsid NTD, from chemical shift changes (in words).
Result: very weak binding

Q: Given the molecule Cc1ccc(NC(=O)Nc2ccc(C#N)cc2)cc1Cl , write its reported binding to the capsid NTD, from chemical shift changes (in words).
Result: very weak binding

Q: Given the molecule O=C(Nc1cccc(C(F)(F)F)c1)Nc1ccc(F)c([N+](=O)[O-])c1 , write its reported binding to the capsid NTD, from chemical shift changes (in words).
Result: capsid binding

Source: patent US7361459B2
